Recorded values, source patent US20260193326A1.

- system name: T1, AAV9 (adeno-associated virus 9)
- T1 construct: also called adeno-associated virus serotype 9
- measurement notes: SPR, AAV amine-coupled to CM5 chip;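 also: nanobodies flowed as analyte at seven concentrations spanning 1–100 nM over immobilized AAV (500–800 RU), kinetic constants derived by fitting the binding curves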
pKd: −log10 of the molar value.
Threshold check on pKd: at or above 8 gives criterion met, strictly below gives criterion not met.

hey, is pKd for this one >= 8? A4-072 (VHH) VHH: VQLQESGGGLAQPGGSLRLSCAASGSSFVINTMGWYRQAPGKQREFVATVTRGGSTNYGEFVKGRFTISRDNAKNTVYLQMNSLRPEDTAVYYCHVDELRQSSWTTSNLWGQGTQVTVSS criterion met

hey, is pKd for this one >= 8? A4-066 (VHH) VHH: VQLQESGGGLVQTGGSLRLSCAASGRAFSLNTMGWYRQAPGKQRELVATVTRGGSTNYAGSVKGRFTISRDNAKNTVYLQMNSLRPEDTAVYYCHVDEVRESSWTTSNLWGQGTQVTVSS criterion not met

hey, is pKd for this one >= 8? A4-057 (VHH) VHH: VQLQESGGGLVQPGGSLRLSCAASGSIFSINTMGWYRQAPGKQREKVAAVTRGGSTNYADSVKGRFTISRDNAKNTVYLQMNSLRPEDTAVYYCHVDEVRQSSWTTSNLWGQGTQVTVSS criterion not met

hey, is pKd for this one >= 8? A4-079 (VHH) VHH: VQLQESGGGLVQPGGSLRLSCAASGTRFSINTMGWYRQAPGKQRELVANVTPAGSTNYADSVKGRFTISRDNAKNTVYLQMNSLRPEDTAVYYCHVDELRDSSWTTSNLWGQGTQVTVSS criterion not met

hey, is pKd for this one >= 8? A4-080 (VHH) VHH: VQLQESGGGLVQPGGSLRLSCAASGSRFSLNTMGWYRQAPGKQRELVATVTRGGSTNYADFVKGRFTISRDNAKNTVYLQMNSLRPEDTAVYYCHVDELRESGWTTSNLWGQGTQVTVSS criterion met

hey, is pKd for this one >= 8? A4-055 (VHH) VHH: VQLQESGGGLVQPGGSLRLSCAASGSIFSINTMGWYRQAPGKQRELVAAVTRGGSTNYADSVKGRFTISRDNAKNTVYLQMNSLRPEDTAVYYCHVDEVRQSSWTTSNLWGQGTQVTVSS criterion met

hey, is pKd for this one >= 8? A4-071 (VHH) VHH: VQLQESGGGAVQAGGSLRLSCAASGSTFSINTMGWYRQAPGKQRELVATVTRGGSTNYGDFVKGRFTISRDNAKNTVYLQMNTLRPEDTAVYYCHLDEVRQSSWTTSNLWGQGTQVTVSS criterion not met

hey, is pKd for this one >= 8? A4-099 (VHH) VHH: VQLQESGGGLVQTGGSLRLSCAASGSSFSINTMGWYRQAPGKWRELVAAVTRGGDTNYAESVKGRFTISRDNGKNTVYLQMNSLRPEDTAVYYCHIDEIRESSWTTSNLWGQGTQVTVSS criterion met
